Record form. Attribute: MIC. Fill in for each entry.
- Tested on: Escherichia coli
- protocol: Antibacterial activity against Escherichia coli ATCC 25922 after 18 hrs by agar dilution method
- Assay type: functional
- test-parameters: ATCC 25922, 18 h
Bridge positions count the residues as written; N and C are the ends. Square brackets hold non-standard residues; d marks the D form. Peptide text beside a SMILES is read from it. * marks the point of attachment. X1 = CC[C@H](C)CCCCC(=O)*; Heptanoyl = CCCCCCC(=O)*; Dab = NCC[C@H](N)C(=O)O
Answers without a unit are incomplete; give the number and then its unit.

Returns the measured MIC for the input compound. Input: CCCCCCC(=O)N[C@@H](CCN)C(=O)N[C@H](C(=O)N[C@@H](CCN)C(=O)N[C@H]1CCNC(=O)[C@H]([C@@H](C)O)NC(=O)[C@H](CCN)NC(=O)[C@H](CCN)NC(=O)[C@H](CC(C)C)NC(=O)[C@@H](Cc2ccccc2)NC(=O)[C@H](CCN)NC1=O)[C@@H](C)O [POLYMYXIN B4] (Heptanoyl-[Dab]T[Dab][Dab][Dab][dF]L[Dab][Dab]T; lactam 4-C)
0.5 µg/mL

Returns the measured MIC for the input compound. Input: CC[C@H](C)CCCCC(=O)N[C@@H](CCN)C(=O)N[C@H](C(=O)N[C@@H](CCN)C(=O)N[C@H]1CCNC(=O)[C@H]([C@@H](C)O)NC(=O)[C@H](CCN)NC(=O)[C@H](CCN)NC(=O)[C@H](CC(C)C)NC(=O)[C@@H](Cc2ccccc2)NC(=O)[C@H](CCN)NC1=O)[C@@H](C)O (X1-[Dab]T[Dab][Dab][Dab][dF]L[Dab][Dab]T; lactam 4-C)
1 µg/mL

Returns the measured MIC for the input compound. Input: CC[C@H](C)CCCCC(=O)N[C@@H](CCN)C(=O)N[C@H](C(=O)N[C@@H](CCN)C(=O)N[C@H]1CCNC(=O)[C@H]([C@@H](C)O)NC(=O)[C@H](CCN)NC(=O)[C@H](CCN)NC(=O)[C@H]([C@@H](C)CC)NC(=O)[C@@H](CC(C)C)NC(=O)[C@H](CCN)NC1=O)[C@@H](C)O
1 µg/mL
